Just for reference, PubChem BioAssay (NCI) is where these values come from.

- test description: NCI Yeast Anticancer Drug Screen. Data for the sgs1 mgt1 strain (AID 161);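 also: 0% = growth of cultures given vehicle only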
- assay context: S. cerevisiae sgs1 mgt1 strain, at 50.0 µM, stronger effect = higher value
- Description: Growth inhibition of yeast strains with defined genetic alterations is measured as a screen for potential anti-cancer activity. Selected strains with alterations in DNA damage repair or cell cycle control were exposed to compounds and growth inhibition was measured relative to vehicle treated controls. The strain used in this assay is sgs1 mgt1
The panel holds about 79,000 compounds, 15% with a hit somewhere; the sample as a whole holds those more often.

molecule	growth inhibition (%)
O=C(c1ccccc1)N(c1ccccc1)c1ccc2ccccc2c1	12
CSC(=S)n1nc(-c2ccccc2)c(N=Nc2ccc(Br)cc2)c1-c1ccccc1	6.15
CC(C)CCCC(C)C1CCC2C3CCC4=CC(O)CCC4(C)C3CCC12C (stereo unspecified)	93
COc1ccccc1NC(=O)C1=CNC(C)=C(C(=O)Nc2ccccc2OC)C1/C=C/c1ccccc1 (stereo unspecified)	-1.95
CCCCOS(=O)(=O)c1ccc(C)cc1	-9.45
Cc1ccc(C(C)(C)C)c(O)c1O	92.1

---

- test description: NCI Yeast Anticancer Drug Screen. Data for the mec2-1 strain (AID 157)
- assay context: S. cerevisiae mec2-1 strain, at 5.0 µM (retest, dose inferred, filed as 0.5), stronger effect = higher value
About 79,000 compounds went through this panel and 15% of them were active in at least one assay; those are over-represented in the sample as a whole.

molecule	growth inhibition, %
CC12CC[C@@H](C(C)(C)O)C1[C@@H](O)CC1(C)C2CCC2[C@@]3(C)CC[C@H](O)C(C)(C)C3C(O)C[C@]21C (some centres not stated)	19
COC(=O)Nc1nc2ccc(CCC(=O)c3c(C)oc(C)c3-c3ccc(NC(C)=O)cc3)cc2[nH]1	4
CCCCCCCCCCCCCCNC(=O)CCC(NC(=O)c1ccc(N(C)Cc2cnc3nc(N)nc(N)c3n2)cc1)C(=O)NCCCCCCCCCCCCCC (configuration not stated)	22
O=C(O)c1cc2ccc(Cl)cc2c2c1C(=O)c1cc(Cl)ccc1-2	0
CCC(=O)NC1=CCC(C(C)(C)C)CC1 (configuration not stated)	1
Cc1ccc2c(c1)[n+]([O-])c(N)n[n+]2[O-]	1
COc1cc(OC)cc(C2SCC(=O)N2c2nncs2)c1 (configuration not stated)	-5
O=C(OCc1ccccc1CN1CCOCC1)c1ccc(Br)cc1	-2
COC(=O)c1ccc(CCC2=CC(=O)C=CC2=O)cc1	39
CCS(=O)(=O)OC(C)CCl (configuration not stated)	1
O/N=C1/C(=C/c2ccc(Cl)c(Cl)c2)CCCC1C(NO)c1ccc(Cl)c(Cl)c1 (configuration not stated)	-1
O=C1CC(c2ccccc2)NN1 (configuration not stated)	-42
COC1/C=C/OC2(C)Oc3c(C)c(O)c4c5c(cc(O)c4c3C2=O)N=C(O5)/C(C)=C\C=C\C(C)C(O)C(C)C(O)C(C)C(OC(C)=O)C1C (configuration not stated)	-71
CC(N)C1C(C)CC2C3CC=C4CC(O)CCC4(C)C3CCC21C (configuration not stated)	35
Cn1c(CCC2(C)Cc3ccccc3C(=O)O2)cc2ccccc2c1=O (configuration not stated)	-6
O=c1c2ccccc2c2ccccc2n1O	95
O=C1C=CC(=Nc2ccc(O)c3ncccc23)c2cccnc21	11
NC(CCCCCC(N)C(=O)O)C(=O)O (configuration not stated)	-50
CC(C)(C)c1ccc(C(=O)n2c(=S)oc3ccc(Cl)cc32)cc1	44
CCOc1ccc(Nc2nc(C)c(C(=O)/C=C/c3ccc(Cl)cc3Cl)s2)cc1	-6
C#CC(CC)(CC)N=Cc1cc(Cl)cc(Cl)c1O	42
Cc1cccc(N2C(=O)c3ccccc3C2(c2ccccc2)N2CCCCC2)c1 (configuration not stated)	0

---

- test description: NCI Yeast Anticancer Drug Screen. Data for the mlh1 rad18 strain (AID 175)
- assay context: S. cerevisiae mlh1 rad18 strain growth inhibition; at 5.0 µM (retest, dose inferred, filed as 0.5); stronger effect = higher value
- Protocol: Growth inhibition of yeast strains with defined genetic alterations is measured as a screen for potential anti-cancer activity. Selected strains with alterations in DNA damage repair or cell cycle control were exposed to compounds and growth inhibition was measured relative to vehicle treated controls. The strain used in this assay is mlh1 rad18
This is part of a sample that, as a whole, favours compounds with a hit. Of some 79,000 tested, about 15% had one in any assay.
If the reported growth inhibition equals or exceeds 10%, assign rule met. If not, assign rule not met.

compound	group label
COc1cc(NCC(C#N)C#N)ccc1N=Nc1ccc(Cl)cc1	rule not met
O=S(Nc1ccccc1Br)c1ccccc1 (stereo not given)	rule not met
O=C(c1ccccc1)N(c1ccccc1)c1ccc2ccccc2c1	rule not met
COc1cccc(/C=C/C(C)=O)c1OC	rule not met
CC(=O)C(C(=N)C#N)C(=O)Nc1ccccc1 (stereo not given)	rule not met
S=C(N/N=C(/c1ccccc1)c1ccccn1)Nc1ccccc1	rule met
CCCCCCCCCCN1CCN(C(=O)OCC)CC1	rule met
COc1ccc(/C=N/N=c2\[nH][nH]/c(=N\N=C\c3ccc(OC)c4ccccc34)c3ccccc23)c2ccccc12	rule met
CC(/C=C/c1cccs1)=N\NC(=S)NCC(C)C	rule not met
Cc1ccc(C(=O)C(CCC#N)(CCC#N)CCC#N)cc1	rule not met
CSc1nc2ccccc2s1	rule not met
COc1ccc(/C=C/c2ccnc3ccccc23)cc1OC	rule met
CC1=CC(C)C(C)N(CCNC(=O)Nc2ccccc2)c2ccccc21 (stereo not given)	rule met
C1CCC2[N-]CC3CCCCC3[N-]CC3CCCCC3[N-]CC3CCCCC3[N-]CC2C1.[Cl][Fe]([Cl])([Cl])[Cl].[Fe+6] (stereo not given)	rule met
CC1(CCC(=O)O)c2ccc3ccccc3c2Oc2c1ccc1ccccc21	rule met
C=CCCCCCCCCC(=O)CCCCCCCCC=C	rule not met
CCC(=C(c1ccc(OCCN(C)C)cc1)c1cccc(O)c1)c1ccccc1 (mixture of isomers)	rule met
C/C(=N/NC(N)=S)C(C)C	rule not met
CC(C(=O)O)C(N)C(=O)O (stereo not given)	rule not met
c1cnc2ccc3c4cccnc4ccc3c2c1	rule not met
COc1ccc(Cc2coc3ccccc3c2=O)cc1OC	rule not met
C1=C(c2ccccc2)CCc2ccccc21	rule not met
C=C(Br)CN(CC(=C)Br)C(C)=O	rule met
CCCC(/C=N/N=C(N)N)=N\N=C(N)N	rule not met
CCC(C)(C[NH-])C[NH-].[Cl][Pt+2][Cl]	rule met

---

- test description: NCI Yeast Anticancer Drug Screen. Data for the cln2 rad14 strain (AID 165);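 also: 0% = growth equal to vehicle treated cultures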
- assay context: S. cerevisiae cln2 rad14 strain, at 50.0 µM, stronger effect = higher value
About 79,000 compounds went through this panel and 15% of them were active in at least one assay; those are over-represented in the sample as a whole. Activity calls are given as the source filed them. No stated cut-off is given here; in the data, active means growth inhibition above about 70%; inactive means the rest.
property measured: growth inhibition

compound	recorded value
CN=C(N)N/N=C(\C)c1ccc2c(ccc3ccccc32)c1	91.3% (active)
COc1ccc2nccc(C(=O)CBr)c2c1	31.3% (inactive)
OCC1CCCCCCCCCCC1	92.3% (active)
Fc1ccccc1CN1COc2c(cc(Cl)c3cccnc23)C1	99.1% (active)
CCCCCCCCCC1OCC(C)O1 (centres undefined)	4% (inactive)
CC(=O)Oc1ccccc1N(C(C)=O)S(=O)(=O)c1ccc(C)cc1	98.5% (active)
C=CCNC(=S)N/N=C(\CCC)c1ccccn1	99.2% (active)
COC(=O)c1ccc(Cl)c(Cl)c1	75.3% (active)
CC(=O)OC1C2C3C(C=CC2[C@H]1OC(C)=O)C1C3C=CC2C1C(OC(C)=O)[C@@H]2OC(C)=O (some centres undefined)	14.3% (inactive)
Cc1ccc(N=Nc2ccc(N)c3ccccc23)c(S(N)(=O)=O)c1	70.8% (active)
Cc1ccc(S(=O)(=O)Nc2ccccc2SSc2ccccc2NS(=O)(=O)c2ccc(C)cc2)cc1	68.9% (inactive)
Cc1ccnc(-c2cc(C)ccn2)c1	-46.7% (inactive)
COC(=O)C1(Cc2ccccc2)Cc2c(C)ccc(C)c2C1=O (centres undefined)	39.2% (inactive)
O=C(CSc1nnc(Cc2ccccc2)o1)Nc1ccc(Cl)cc1	35% (inactive)
COc1ccc2c(c1)O[C@H]1c3ccc(O)cc3OC[C@@H]21	50.3% (inactive)
O=C1C(C(O)(C(F)(F)Cl)C(F)(F)Cl)CCC1C(O)(C(F)(F)Cl)C(F)(F)Cl (centres undefined)	99.4% (active)
C/C=C/c1ccc(OCC(=O)O)c(OC)c1	98.2% (active)
CCCCCCCCCCCC(=O)c1c(O)c2ccccc2oc1=O	22.3% (inactive)
C[C@H](CCC1=NCCN1)[C@H]1CC[C@H]2[C@@H]3[C@H](O)C[C@@H]4C[C@H](O)CC[C@]4(C)[C@H]3CC[C@]12C	91% (active)
N=C(N)c1ccc(Nc2ccc(C(=N)N)cc2)cc1	72.2% (active)
O=[N+]([O-])c1ccc(-c2ccc(-c3csc(Nc4ccccc4)n3)o2)cc1	90.8% (active)
COc1ccc(CN2CCCN(Cc3ccc(OC)cc3OC)C2c2cc(Cl)cc(Cl)c2O)c(OC)c1	30.9% (inactive)
Cc1cccc(NC(=O)c2cc3cc(N=Nc4ccccc4Cl)ccc3oc2=O)c1	35% (inactive)
N[C@@H]1CCCC[C@@H]1N.O=C([O-])CN(CP(=O)([O-])[O-])CP(=O)([O-])[O-].[Pt+2]	98.3% (active)
C=C1CC[C@@H]2C(C)(C)C(O)CCC2(C)C1COc1ccc2ccc(=O)oc2c1 (some centres undefined)	85.8% (active)
COC1C(=[N+]=[N-])C(=O)NC(=O)N1C1OC(COC(c2ccccc2)(c2ccccc2)c2ccccc2)C(O)C1O (centres undefined)	77.2% (active)
O=C(c1ccccc1)c1ccc(Cl)cc1	-3% (inactive)
COc1ccc(/C(C#N)=C(/N)SCc2ccccc2Cl)cc1	66.8% (inactive)
O=C(N/N=C/c1ccccc1[O-])c1ccccc1O.O=C(N/N=C/c1ccccc1[O-])c1ccccc1O.[Mn+2]	99% (active)
Nc1ccc2ccc3cccc4ccc1c2c34	62.5% (inactive)
CC1SC2=NC3=C(c4ccccc4C3=O)C(c3ccc(Cl)cc3)N2C1=O (centres undefined)	56.3% (inactive)
CC(C)O[C@H]1N(C2CC(N=[N+]=[N-])C(CO)O2)C(=O)NC(=O)[C@]1(C)Br (some centres undefined)	89% (active)
O=c1c2c(F)c(F)c(F)c(F)c2sc2nccn12	90.2% (active)
CC1CCC2(CC1)OCC(C)O2 (centres undefined)	19.8% (inactive)
O=Cc1c(O)ccc2ccccc12	99% (active)
COc1cccc2c1C(=O)c1c(O)c3c(c(O)c1C2=O)C[C@@](O)(C(O)CO)C[C@@H]3OC1CC(N(Cc2ccccc2)Cc2ccccc2)C(O)C(C)O1 (some centres undefined)	45.1% (inactive)
CS(=O)(=O)OCCN(CCOS(C)(=O)=O)c1ccc(C=Nc2ccc3ccccc3c2)cc1	37.7% (inactive)
c1ccc(Nc2nnc3nc(-c4ccccc4)c(-c4ccccc4)nn23)cc1	33% (inactive)
CCCOC(=O)C1CCCCC1C(=O)OCCC (centres undefined)	71.2% (active)
N=C1C=CC(=C(c2ccc(N)cc2)c2ccc(N)cc2)C=C1	96.8% (active)
CC(C)OC(=O)C1C=CCc2c(O)ccc(O)c21 (centres undefined)	65.9% (inactive)
COc1cc(C2c3cc4c(cc3[C@@H](Nc3cccc(O)c3)C3COC(=O)[C@H]23)OCO4)cc(OC)c1O (some centres undefined)	88.8% (active)
COc1ccc(CN2COc3c(cc(C)c4cccnc34)C2)cc1	39.9% (inactive)
COc1ccc(C(C)=O)c(OC(=O)c2ccccc2)c1OC(=O)c1ccccc1	-3% (inactive)
